Test system: Pyricularia oryzae
Format: in vivo
TEST CONDITIONS: individual active compound, 1 ppm in the spray liquor; protective spray, inoculated next day, rated after 6 days
OBSERVABLE: Efficacy in % of the untreated control

> print(dat)
                                   molecule                              observable  recorded.measurement
1  CC1CCN(c2c(-c3c(F)cccc3Cl)c(Cl)nc3ncnn23)CC1 [A]  Efficacy in % of the untreated control                    0%
2  CCCC1COC(Cn2cncn2)(c2ccc(Cl)cc2Cl)O1 (stereo not shown) [II]  Efficacy in % of the untreated control                    0%
3  CC1CCN(c2c(-c3c(F)cc(F)cc3F)c(Cl)nc3ncnn23)CC1 [I]  Efficacy in % of the untreated control                   11%
4  CC(Nc1c(-c2c(F)cc(F)cc2F)c(Cl)nc2ncnn12)C(F)(F)F (stereo not shown) [B]  Efficacy in % of the untreated control                   11%

# credit: patent US20070082915A1
